Each record here notes measured MIC.
# System: S. aureus 573
# test: MIC, hospital methicillin-resistant strains (MRSA)
# condition.context: hospital MRSA strain S. aureus 573

compound: FC(F)(F)c1cccc([N-]C(=S)Nc2cccc(Br)c2)c1.FC(F)(F)c1cccc([N-]C(=S)Nc2cccc(Br)c2)c1.[Cu+2] [Cu4]
MIC (µg/mL): 8
//
compound: CC(NC(=S)[N-]c1cccc(C(F)(F)F)c1)c1ccccc1.CC(NC(=S)[N-]c1cccc(C(F)(F)F)c1)c1ccccc1.[Cu+2] (racemic) [Cu2]
MIC (µg/mL): 8
//
compound: FC(F)(F)c1cccc([N-]C(=S)NCCc2ccccc2)c1.FC(F)(F)c1cccc([N-]C(=S)NCCc2ccccc2)c1.O.[Cu+2] [Cu1]
MIC (µg/mL): 64
//
compound: O.O=[N+]([O-])c1cc(NC(=S)[N-]c2cccc(C(F)(F)F)c2)ccc1Cl.O=[N+]([O-])c1cc(NC(=S)[N-]c2cccc(C(F)(F)F)c2)ccc1Cl.[Cu+2] [Cu5]
MIC (µg/mL): 2
//
compound: FC(F)(F)c1cccc([N-]C(=S)NCc2ccccc2)c1.FC(F)(F)c1cccc([N-]C(=S)NCc2ccccc2)c1.[Cu+2] [Cu3]
MIC (µg/mL): 64
